Form field: p53 reporter assay: % Effect (one value per entry).
system: p53 responsive β-lactamase reporter in HCT116 cells; assay: cells; format: cell-based; details: 10% FBS 16Hr
measured attribute: p53 reporter assay: % Effect (%)

sample smiles	unit annotation	assay value
CC(=O)N[C@@H](CCCCN=[N+]=[N-])C(=O)NCCC(=O)N[C@@H](CC(C)C)C(=O)N[C@H](C(=O)N[C@@H](Cc1ccccc1)C(=O)N[C@]1(C)CCCCCCn2cc(nn2)CCC[C@@](C)(C(=O)N[C@@H](CO)C(=O)N[C@@H](C)C(=O)N[C@@H](C)C(N)=O)NC(=O)[C@H](CC2CCC2)NC(=O)[C@H](CCC(N)=O)NC(=O)[C@H](C)NC(=O)[C@H](Cc2c[nH]c3ccccc23)NC(=O)[C@H](Cc2ccc(O)cc2)NC(=O)[C@H](CCC(=O)O)NC1=O)[C@@H](C)O	%	63.44
CC(=O)N[C@@H](CCCCN=[N+]=[N-])C(=O)NCCC(=O)N[C@@H](CC(C)C)C(=O)N[C@H](C(=O)N[C@@H](Cc1ccccc1)C(=O)N[C@]1(C)CCCCCCC=CCCC[C@@](C)(C(=O)N2CCC[C@@H]2C(=O)N2CCC[C@@H]2C(=O)N2CCC[C@@H]2C(=O)N2CCC[C@@H]2C(=O)N2CCC[C@@H]2C(=O)N2CCC[C@@H]2C(N)=O)NC(=O)[C@H](CC2CCC2)NC(=O)[C@H](CCC(N)=O)NC(=O)[C@H](C)NC(=O)[C@H](Cc2c[nH]c3ccccc23)NC(=O)[C@H](Cc2ccc(O)cc2)NC(=O)[C@H](CCC(=O)O)NC1=O)[C@@H](C)O	%	32.76
